The values you see were collected from paper PMC6399220.

molecular target: XylE-WW (xylose:proton symporter XylE) (Escherichia coli, UniProt P0AGF4, G58W/L315W); experiment: MST and ITC; assay type: binding
Recorded endpoint: Kd

>  <Compound>
OC1OC[C@@H](O)[C@H](O)[C@H]1O (stereo partly shown)

>  <Test target>
XylE-WW (xylose:proton symporter XylE) (Escherichia coli, UniProt P0AGF4, G58W/L315W)

>  <Recorded measurement>
14.4 µM

$$$$

###

Biological target: XylE (WT, xylose:proton symporter) (Escherichia coli, UniProt P0AGF4)
Sequence (P0AGF4 1-491): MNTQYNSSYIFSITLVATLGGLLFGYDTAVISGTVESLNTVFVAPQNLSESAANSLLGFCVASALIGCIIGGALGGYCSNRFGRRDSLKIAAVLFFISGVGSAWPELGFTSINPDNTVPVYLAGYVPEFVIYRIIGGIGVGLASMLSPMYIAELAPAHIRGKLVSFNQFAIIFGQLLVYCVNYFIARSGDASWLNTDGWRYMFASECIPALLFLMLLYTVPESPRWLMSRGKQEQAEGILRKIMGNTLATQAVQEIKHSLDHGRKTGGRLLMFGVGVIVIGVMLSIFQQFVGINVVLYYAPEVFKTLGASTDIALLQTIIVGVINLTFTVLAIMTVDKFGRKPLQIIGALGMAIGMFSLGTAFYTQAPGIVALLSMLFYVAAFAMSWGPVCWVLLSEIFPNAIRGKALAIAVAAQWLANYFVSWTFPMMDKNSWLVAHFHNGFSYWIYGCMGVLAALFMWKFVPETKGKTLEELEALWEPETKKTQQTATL
Assay: ITC (MST almost identical)
Assay type: binding

>  <Molecule>
OC1OC[C@@H](O)[C@H](O)[C@H]1O (stereo partly drawn) [D-xylose]

>  <Kd (µM)>
843

$$$$
